The values you see were collected from paper PMC7251097.

# tgt: His6-AspH315–758 (human aspartate/asparagine-β-hydroxylase, AspH) (Homo sapiens)
# Construct: N-Terminally His6-tagged human AspH315–758 (His6-AspH315–758) was produced in E. coli BL21 (DE3) cells; made in house; host or cells: E. coli BL21 (DE3), pET-28a(+) vector
# assay_protocol: SPE-MS AspH inhibition assay (LOPAC screen at fixed 20 μM and IC50 dose-response), hydroxylation of cyclic peptide hFX-CP101–119
# Assay type: biochemical
Quick rule for you: Plate 3 (% conversion) at 40% or higher means 1, lower means 0.

# check: Plate 3 (% conversion) of O=C(O)/C=C/C(=O)O.O=C(O)/C=C/C(=O)O.O=C(O)/C=C/C(=O)O.O=C1CCCN1CC#CCN1CCCC1.O=C1CCCN1CC#CCN1CCCC1 [Oxotremorine sesquifumarate salt] is greater than or equal to 40% 0

And then O=C(O)CC[N+](=O)[O-] , what is it? 0

Can you handle COc1cc([C@@H]2c3cc4c(cc3[C@H](O)[C@H]3COC(=O)[C@H]23)OCO4)cc(OC)c1OC next? 0

# iterate: COc1ccc2c(c1)CC[C@@H]1[C@@H]2CC[C@]2(C)[C@@H](NCCCCCCN3C(=O)CCC3=O)CC[C@@H]12 1

Entry to check: CC(C)Cn1c(=O)n(C)c(=O)c2[nH]cnc21 0

---

Inhibition at 20 µM [%] by entry:
# tgt: His6-AspH315–758 (human aspartate/asparagine-β-hydroxylase, AspH) (Homo sapiens)
# Construct: N-Terminally His6-tagged human AspH315–758 (His6-AspH315–758) was produced in E. coli BL21 (DE3) cells; made in house; host or cells: E. coli BL21 (DE3), pET-28a(+) vector
# assay_protocol: SPE-MS AspH inhibition assay (LOPAC screen at fixed 20 μM and IC50 dose-response), hydroxylation of cyclic peptide hFX-CP101–119
# Assay type: biochemical
# test_context: AspH activity; fixed compound concentration 20 μM; initial LOPAC screen; 0.5%v/v DMSO
Remember to put the unit after the number in your answer.

compound	Inhibition at 20 µM [%]
Cc1ccc(C(=O)Nc2ccc(S(=O)(=O)[O-])c3cc(S(=O)(=O)[O-])cc(S(=O)(=O)[O-])c23)cc1NC(=O)c1cccc(NC(=O)Nc2cccc(C(=O)Nc3cc(C(=O)Nc4ccc(S(=O)(=O)[O-])c5cc(S(=O)(=O)[O-])cc(S(=O)(=O)[O-])c45)ccc3C)c2)c1.[Na+].[Na+].[Na+].[Na+].[Na+].[Na+] [Suramin sodium salt, reference compound]	103.3%
O=C1c2c(O)cc(O)cc2O[C@H](c2ccc(O)c(O)c2)[C@H]1O (racemic) [(±)-Taxifolin, reference compound]	97.5%
C=CCc1cccc(/C=N/NC(=O)CN2CCN(Cc3ccccc3)CC2)c1O [PAC-1, reference compound]	96.1%
CN=c1nc(-c2ccccc2)n(-c2ccccc2)s1 [SCH-202676, reference compound]	100.6%
CC(C)c1ccc2c(c1)c(SC(C)(C)C)c(CC(C)(C)C(=O)O)n2Cc1ccc(Cl)cc1 [MK-886, reference compound]	99.9%

State the recorded Inhibition at 20 µM [%] for this entry: Br.C=CCN1CCc2c(cc(O)c(O)c2Cl)C(c2ccccc2)C1 (racemic) [(±)-Chloro-APB hydrobromide, reference compound] 95.8%

Consider next the compound Oc1ccc2ccccc2c1SSc1c(O)ccc2ccccc12 [IPA-3, reference compound] in the same way. 100.0%

Now consider O=C(O)CN(CCN(CC(=O)O)CC(=O)O)CCN(CC(=O)O)CC(=O)O [Diethylenetriaminepentaacetic acid, reference compound] . 100.3%

Moving on to the next compound: Br.Cc1cccc(C2CN(C)CCc3c2cc(O)c(O)c3Cl)c1 (stereo not drawn) [SKF 83959 hydrobromide, reference compound] 95.1%

---

# tgt: His6-AspH315–758 (human aspartate/asparagine-β-hydroxylase, AspH) (Homo sapiens)
# Construct: N-Terminally His6-tagged human AspH315–758 (His6-AspH315–758) was produced in E. coli BL21 (DE3) cells; made in house; host or cells: E. coli BL21 (DE3), pET-28a(+) vector
# assay_protocol: SPE-MS AspH inhibition assay (LOPAC screen at fixed 20 μM and IC50 dose-response), hydroxylation of cyclic peptide hFX-CP101–119
# Type: biochemical
Overview of reported Plate 5 (% conversion) across a group of compounds:
I only need the number, in %, no unit after it.

// fetch His6-AspH315–758 (human aspartate/asparagine-β-hydroxylase, AspH) (Homo sapiens) Plate 5 (% conversion) for CN(CCCOc1ccc(Cc2ccccc2)cc1)CCC(=O)O.Cl [SC-57461A] 38.96

Please answer likewise for COCCOc1cc2nc[nH]c(=O)c2cc1OCCOC [CP-380736] 31.91

Please do the same for CN(C)C(=O)[C@H](O)[C@H](Cc1ccccc1)NC(=O)c1cc2cc(Cl)ccc2[nH]1 [CP-91149] as well. 35.66

---

# tgt: His6-AspH315–758 (human aspartate/asparagine-β-hydroxylase, AspH) (Homo sapiens, UniProt Q12797)
# Construct: N-Terminally His6-tagged human AspH315–758 (His6-AspH315–758) was produced in E. coli BL21 (DE3) cells; made in house; host or cells: E. coli BL21 (DE3), pET-28a(+) vector
# assay_protocol: SPE-MS AspH inhibition assay (LOPAC screen at fixed 20 μM and IC50 dose-response), hydroxylation of cyclic peptide hFX-CP101–119
# Assay type: biochemical
# test_context: AspH activity; fixed compound concentration 20 μM; initial LOPAC screen; 0.5%v/v DMSO; read-out: Inhibition at 20 µM [%]
Below, each entry is listed with its recorded inhibition at 20 µM.
Kindly provide the numeric value in % only, without the unit symbol.

molecule	unit	inhibition at 20 µM
O=c1c(O)c(-c2cc(O)c(O)c(O)c2)oc2cc(O)cc(O)c12 [Myricetin, reference compound]	%	99.4
NC(CO)C(=O)NNCc1ccc(O)c(O)c1O (centres unmarked) [benserazide, reference compound]	%	95.2
O=c1ccc2ccc(O)c(O)c2o1 [Daphnetin, reference compound]	%	98.5
O=C(/C=C/c1ccc(O)c(O)c1)OCCc1ccccc1 [Caffeic acid phenethyl ester, reference compound]	%	98.5
O=c1c(O)c(-c2ccc(O)cc2O)oc2cc(O)cc(O)c12 [Morin, reference compound]	%	101
CN(C)c1cc(NC(=O)CNC(C)(C)C)c(O)c2c1C[C@H]1C[C@H]3[C@H](N(C)C)C(O)=C(C(N)=O)C(=O)[C@@]3(O)C(O)=C1C2=O [Tigecycline, tigecycline, reference compound]	%	95.3
N#CC(C#N)=Cc1ccc(O)c(O)c1 [Tyrphostin 23, reference compound]	%	98.7
CCCc1nn(C)c2c(=O)[nH]c(-c3cc(S(=O)(=O)N4CCN(C)CC4)ccc3OCC)nc12 [sildenafil, reference compound]	%	97.8
O=C(O)Cc1ccc(O)c(O)c1 [3,4-Dihydroxyphenylacetic acid, reference compound]	%	98.6
O=C(O)C1=CC(=C(c2ccc(O)c(C(=O)O)c2)c2ccc(O)c(C(=O)O)c2)C=CC1=O [Aurintricarboxylic acid, reference compound]	%	104

# get_value(readout='inhibition at 20 µM', item= Oc1cc(O)cc(/C=C/c2ccc(O)c(O)c2)c1 [Piceatannol, reference compound] ) 99.9

For CCOc1nc2cccc(C(=O)OC(C)OC(=O)OC3CCCCC3)c2n1Cc1ccc(-c2ccccc2-c2nnn[nH]2)cc1 (centres unmarked) [Candesartan cilexetil, reference compound] then? 100

Input N#CC(C#N)=C(N)/C(C#N)=C/c1cc(O)c(O)c(O)c1 [Tyrphostin 51, reference compound] 101

Next molecule: O=P(O)(O)C(Cl)(Cl)P(=O)(O)O [Clodronic acid, reference compound] 100

---

# tgt: His6-AspH315–758 (human aspartate/asparagine-β-hydroxylase, AspH) (Homo sapiens, UniProt Q12797)
# Construct: N-Terminally His6-tagged human AspH315–758 (His6-AspH315–758) was produced in E. coli BL21 (DE3) cells; made in house; host or cells: E. coli BL21 (DE3), pET-28a(+) vector
# Sequence (Q12797 315-758): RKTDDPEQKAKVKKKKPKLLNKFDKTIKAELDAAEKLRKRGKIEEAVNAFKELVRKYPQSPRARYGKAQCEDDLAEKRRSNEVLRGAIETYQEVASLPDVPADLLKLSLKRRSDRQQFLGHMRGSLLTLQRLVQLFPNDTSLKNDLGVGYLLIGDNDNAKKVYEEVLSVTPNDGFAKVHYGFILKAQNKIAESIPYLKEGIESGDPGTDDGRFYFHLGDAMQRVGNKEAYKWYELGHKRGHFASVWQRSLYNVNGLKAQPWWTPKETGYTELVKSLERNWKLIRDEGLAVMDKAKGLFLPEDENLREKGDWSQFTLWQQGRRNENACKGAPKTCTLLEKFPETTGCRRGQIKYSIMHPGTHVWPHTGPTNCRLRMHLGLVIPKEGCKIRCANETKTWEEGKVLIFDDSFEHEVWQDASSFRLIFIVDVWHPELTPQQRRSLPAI
# assay_protocol: SPE-MS AspH inhibition assay (LOPAC screen at fixed 20 μM and IC50 dose-response), hydroxylation of cyclic peptide hFX-CP101–119
# Assay type: biochemical
Counter-ions that a name gives are not always drawn.
assay_metric: Plate 1 (% conversion) (%)
Provide only the numeric value, understood in %.

Below, 3 compounds whose answers are already recorded.
compound	unit	Plate 1 (% conversion)
CC(NC(C)(C)C)C(=O)c1cccc(Cl)c1 (stereo not drawn) [Bupropion hydrochloride]	%	38.01
CNc1ccc2oc(C[C@H]3O[C@@]4(CC[C@H]3C)O[C@H]([C@H](C)C(=O)c3ccc[nH]3)[C@H](C)C[C@H]4C)nc2c1C(=O)O [Calcimycin, calcimycin, reference compound]	%	2.02
Cl.NCCc1ccc(S(=O)(=O)F)cc1	%	34.69

Below: the item to evaluate.
For the compound NC(CCP(=O)(O)O)C(=O)O (racemic) [(±)-2-Amino-4-phosphonobutyric acid] , what Plate 1 (% conversion) is on record? 37.71
